tested on: EKVX NSCLC; test: NCI-60 one-dose screen, 48 h (100 = growth as untreated, 0 = no growth, -100 = all killed); details: 10 µM unless noted
This is part of a sample that, as a whole, favours compounds with a hit. Of some 83,000 tested, about 20% had one in any assay.
Below, each entry is listed alongside its reported growth.

molecule	growth (%)
N#CC1=C(c2ccc(Br)cc2)NC(SCC(=O)c2ccc(Br)cc2)NC1=O (stereo not given)	104
COc1ccc(Cl)cc1NC(=O)C(Br)C(Br)C(=O)O (stereo not given)	90.9
COc1ccc(-c2nc3sccn3c2-c2cc(-c3cc(OC)c(OC)c(OC)c3)on2)cc1	98.9
CCc1ccccc1-n1c(-c2ccc(Cl)cc2)cc(-c2ccc(OC)cc2)c(C#N)c1=O	96.1
Cc1cc(NCc2cc(Nc3ccnc4cc(Cl)ccc34)ccc2F)nc(N2CCCC2)n1	17.3
O=C(N/N=C/C=C/c1ccc([N+](=O)[O-])o1)c1cc2ccccc2cc1O	-15.9
N#Cc1c(N)nc(NCCO)nc1-c1ccc(F)cc1	89.9
COc1ccc2c(c1)C(=O)/C(=C/c1cccc(OCC(=O)Nc3nc(C)c(C)s3)c1)O2	-45.3
Cc1ccc(Nc2ccc(Nc3ccc(C)cc3)c3c2C(=O)c2cccc(O)c2C3=O)cc1	91.6
O=S(=O)(O)c1ccc(N/N=C/c2ccccc2Cl)cc1	116
COc1cc(/C=C/C(=O)c2ccc(Nc3nc(Nc4ccc(F)cc4)nc(Nc4ccc(Cl)cc4)n3)cc2)cc(OC)c1OC	74.1
N#Cc1c(-c2ccccc2)cc(-c2ccc(Nc3nc(Nc4ccc(F)cc4)nc(Nc4ccc(F)cc4)n3)cc2)nc1N	88.9
C=C1C(=O)O[C@H]2[C@H]1CC/C(COC(=O)C(=O)c1c[nH]c3ccc(OC)cc13)=C\CC[C@@]1(C)O[C@@H]21	-4.43
C[C@@]1(CCC#N)[C@H]2CC[C@@H]3[C@H]4[C@H](C(=O)/C=C/c5cccnc5)CC[C@]4(C#N)CC[C@@]3(C)[C@]2(C)CC[C@H]1C(=O)/C=C/c1cccnc1	98.1
N#Cc1c(N2CCNCC2)nc2sc3cc(Cl)c(Cl)cc3n2c1=N	98.8
C=CCn1c(C)nc2cc(Nc3nc(Cl)nc4ccccc34)ccc21	93.7
S=C(Cc1ccc2c(c1)CCCC2)N1CCOCC1	97.5
Cc1ccc(Cl)c(NS(=O)(=O)c2ccc(-c3cnc(C4CC4)o3)cc2)c1	31.4
COc1cc(/C=N/Nc2ncc(-c3cc4cc5c(cc4o3)OCO5)s2)cc(OC)c1OC	71.4
CCCCCc1nc2c(c3c1CCCC3)CCCC2	77.1
